The measured values listed here are drawn from ChEMBL document CHEMBL6177934.

Target: Tumor necrosis factor receptor superfamily member 10B (Homo sapiens, UniProt O14763)
Sequence (O14763 whole entry): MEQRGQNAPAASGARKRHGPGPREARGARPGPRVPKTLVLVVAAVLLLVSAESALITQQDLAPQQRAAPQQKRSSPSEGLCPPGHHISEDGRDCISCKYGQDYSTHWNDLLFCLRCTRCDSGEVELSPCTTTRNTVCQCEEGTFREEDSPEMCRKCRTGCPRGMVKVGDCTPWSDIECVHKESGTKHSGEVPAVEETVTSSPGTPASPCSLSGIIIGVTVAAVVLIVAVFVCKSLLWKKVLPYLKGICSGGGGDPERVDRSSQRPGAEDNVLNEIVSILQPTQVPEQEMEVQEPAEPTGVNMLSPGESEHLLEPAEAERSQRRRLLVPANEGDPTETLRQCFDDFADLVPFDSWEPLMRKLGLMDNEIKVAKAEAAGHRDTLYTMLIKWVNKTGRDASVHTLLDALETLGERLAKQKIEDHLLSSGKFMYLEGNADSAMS
Assay: Binding affinity to human recombinant DR5 assessed as dissociation constant by SPR analysis
Starred links: 1 amine or outer side, 2 acyl side, 3 side chain; linkers in the order of their positions; H or OH if unused. Positions of bridges follow the written chain, without caps; N, C: chain ends. Chains are numbered I, II in the order given. *: point of attachment. X1 = NC12CC3(C(=O)NCCCCCC(=O)[*:1])CC(C(=O)NCCCCCC(=O)[*:2])(C1)CC(C(=O)NCCCCCC(=O)[*:3])(C2)C3; X2 = O=C(CCC(=O)[*:1])NCCCC12CC3CC(CCCNC(=O)CCC(=O)[*:2])(C1)CC(CCCNC(=O)CCC(=O)[*:3])(C3)C2; X3 = CC(C)C[C@@H](C)N*
Exercise: state measured Kd for each of the substances provided.
Numbers only, in nM.

[[record]]
substance = "I: Ac-WDCLDNRIGRRQCVKL-NH2 / II: Ac-WDCLDNRIGRRQCVKL-NH2 / III: Ac-WDCLDNRIGRRQCVKL-NH2 (disulfide I:3-I:13, II:3-II:13, III:3-III:13; linker I:15-II:15-III:15 via X2)"
recorded_metric = "Kd"
meas_value = 0.88


Record Kd per entry; entries follow.
1. I: Ac-WDCLDNRIGRRQCVKL-NH2 / II: Ac-WDCLDNRIGRRQCVKL-NH2 / III: Ac-WDCLDNRIGRRQCVKL-NH2 (disulfide I:3-I:13, II:3-II:13, III:3-III:13; linker I:15-II:15-III:15 via X1)
2. I: Ac-WDCLDNKIGRRQCVKL-NH2 / II: Ac-WDCLDNKIGRRQCVKL-NH2 / III: Ac-WDCLDNKIGRRQCVKL-NH2 (disulfide I:3-I:13, II:3-II:13, III:3-III:13; linker I:7-II:7-III:7 via X2)
3. I: Ac-WDCLDNRIGKRQCVKL-NH2 / II: Ac-WDCLDNRIGKRQCVKL-NH2 / III: Ac-WDCLDNRIGKRQCVK-X3 (disulfide I:3-I:13, II:3-II:13, III:3-III:13; linker I:10-II:10-III:10 via X2)

Output:
1. 9.1
2. 0.05
3. 0.539
